Source: patent US20170355775A1

Biological target: T1, canine CD20 ECD2 peptide (canine)
T1 peptide: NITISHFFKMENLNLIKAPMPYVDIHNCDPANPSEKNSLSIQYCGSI
Test: ELISA on canine CD20 ECD2 peptide

{"binder": "1E4-cIgGB with G34 to R substitution in VL (antibody, V domains shown, Whole antibody (heavy plus light chains) made 'using the above procedures') VH: EVQLVESGGGLVKPGGSLKLSCAASGFTFSDYGMLWVRQAPEKGLEWIAYISSGSSTIYYADRVKGRFTISRDNAKNTLFLQMTSLRSEDTAMYYCSTGTFAYWGQGTPVTVSS VL: DVVMTQNPLSLPVSLGDQASISCRSSQSLIYNNRNTYLHWYRQKPGQSPKLLIYKVSNRFSGVPDRFSGSGSGTDFTLKISRVEAEDLGVYFCSQSTHVPFTFGSGTKLEIKR", "binding result": "binds"}
{"binder": "1E4-cIgGB with N33 to A substitution in VL (antibody, V domains shown, Whole antibody (heavy plus light chains) made 'using the above procedures') VH: EVQLVESGGGLVKPGGSLKLSCAASGFTFSDYGMLWVRQAPEKGLEWIAYISSGSSTIYYADRVKGRFTISRDNAKNTLFLQMTSLRSEDTAMYYCSTGTFAYWGQGTPVTVSS VL: DVVMTQNPLSLPVSLGDQASISCRSSQSLIYNAGNTYLHWYRQKPGQSPKLLIYKVSNRFSGVPDRFSGSGSGTDFTLKISRVEAEDLGVYFCSQSTHVPFTFGSGTKLEIKR", "binding result": "binds"}
